# IC50 listing for each entry below
molecular target: ENaC (Epithelial Sodium Channel) in mouse kidney M-1 cells (Mus musculus, UniProt Q61180+Q9WU38+Q9WU39); construct: Mouse kidney M-1 cells were cultivated in DMEM containing 5% FCS and 5 μM dexamethasone; endogenous in cells; assay: Ussing Chamber assay (short circuit current, amiloride sensitive I_SC); settings: apical administration, 37° C.
Sequence (Q61180 whole entry): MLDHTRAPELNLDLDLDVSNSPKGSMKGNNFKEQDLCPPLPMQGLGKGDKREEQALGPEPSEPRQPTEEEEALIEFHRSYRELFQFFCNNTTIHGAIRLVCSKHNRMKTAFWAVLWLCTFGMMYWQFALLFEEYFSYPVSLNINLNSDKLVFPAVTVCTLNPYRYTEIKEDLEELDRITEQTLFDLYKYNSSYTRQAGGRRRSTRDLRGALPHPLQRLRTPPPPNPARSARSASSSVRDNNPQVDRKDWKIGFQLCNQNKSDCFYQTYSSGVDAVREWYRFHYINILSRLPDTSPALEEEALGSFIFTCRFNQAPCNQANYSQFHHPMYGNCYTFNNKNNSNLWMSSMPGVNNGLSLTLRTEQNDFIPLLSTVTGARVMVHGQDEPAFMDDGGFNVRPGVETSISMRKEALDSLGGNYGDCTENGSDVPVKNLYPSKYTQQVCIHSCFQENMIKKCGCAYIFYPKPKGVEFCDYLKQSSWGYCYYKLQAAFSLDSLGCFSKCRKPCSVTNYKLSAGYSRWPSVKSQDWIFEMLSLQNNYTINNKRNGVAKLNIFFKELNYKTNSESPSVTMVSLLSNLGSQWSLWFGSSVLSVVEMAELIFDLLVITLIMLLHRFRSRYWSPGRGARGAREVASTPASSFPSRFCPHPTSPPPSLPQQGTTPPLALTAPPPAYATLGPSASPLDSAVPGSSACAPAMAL
Sequence (Q9WU38 whole entry): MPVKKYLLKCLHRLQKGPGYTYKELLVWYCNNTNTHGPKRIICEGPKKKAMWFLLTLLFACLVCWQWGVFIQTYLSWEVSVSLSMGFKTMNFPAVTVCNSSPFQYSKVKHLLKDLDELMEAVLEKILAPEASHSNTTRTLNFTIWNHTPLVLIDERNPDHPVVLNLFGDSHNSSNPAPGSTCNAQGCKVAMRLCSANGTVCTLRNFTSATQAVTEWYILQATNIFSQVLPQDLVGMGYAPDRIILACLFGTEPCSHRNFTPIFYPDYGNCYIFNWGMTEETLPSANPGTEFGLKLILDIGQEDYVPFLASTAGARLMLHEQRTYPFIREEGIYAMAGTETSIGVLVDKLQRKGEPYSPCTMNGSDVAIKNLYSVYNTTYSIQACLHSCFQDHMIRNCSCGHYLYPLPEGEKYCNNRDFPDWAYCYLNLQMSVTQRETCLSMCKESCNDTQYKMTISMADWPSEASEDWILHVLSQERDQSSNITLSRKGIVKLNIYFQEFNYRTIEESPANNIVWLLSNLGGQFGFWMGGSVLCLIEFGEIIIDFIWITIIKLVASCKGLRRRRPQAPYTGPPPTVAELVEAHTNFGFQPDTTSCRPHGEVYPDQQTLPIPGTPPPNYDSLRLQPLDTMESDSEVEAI
Sequence (Q9WU39 whole entry): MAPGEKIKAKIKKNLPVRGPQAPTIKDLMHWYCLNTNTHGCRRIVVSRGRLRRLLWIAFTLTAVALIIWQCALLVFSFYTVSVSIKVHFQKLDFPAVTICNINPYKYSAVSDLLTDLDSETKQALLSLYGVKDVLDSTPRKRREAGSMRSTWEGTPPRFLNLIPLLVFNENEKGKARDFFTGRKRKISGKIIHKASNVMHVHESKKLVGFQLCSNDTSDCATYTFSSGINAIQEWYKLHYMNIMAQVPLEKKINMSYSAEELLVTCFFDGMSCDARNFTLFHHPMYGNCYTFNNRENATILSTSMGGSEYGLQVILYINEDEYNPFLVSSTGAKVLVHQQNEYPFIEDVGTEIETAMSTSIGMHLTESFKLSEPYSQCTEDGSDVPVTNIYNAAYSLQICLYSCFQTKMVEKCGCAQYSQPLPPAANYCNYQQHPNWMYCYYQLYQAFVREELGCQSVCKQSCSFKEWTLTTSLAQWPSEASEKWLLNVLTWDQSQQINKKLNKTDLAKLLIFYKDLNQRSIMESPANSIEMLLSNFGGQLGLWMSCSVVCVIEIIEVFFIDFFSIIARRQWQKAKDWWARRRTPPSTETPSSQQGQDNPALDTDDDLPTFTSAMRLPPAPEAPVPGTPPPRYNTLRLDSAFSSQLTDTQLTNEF
Only the number, expressed in nM, is required.

Q) Given `CCn1c(CNC(=O)c2nc(Cl)c(N)nc2N)[n+](CC)c2c(C(=O)NC3CCN(C(=O)OC(C)(C)C)CC3)cccc21` , state its recorded IC50.
A) 3

Q) Please give the result for `CC[n+]1c(CNC(=O)c2nc(Cl)c(N)nc2N)n(C[C@@H]2CCCO2)c2cccc(OCC(=O)N3C[C@H](O)[C@@H](O)C3)c21` too.
A) 36

* * *

# Papp A→B at 90 min, 10 μM listing for each entry below
assay: Permeability in CALU-3 cells; assay type: in vitro ADME; settings: human; apical-to-basal, CALU-3 monolayers, pH 7.4, 37° C., 10 μM compound
Only the number, expressed in ×10⁻⁶ cm/s, is required.

| molecule smiles | Papp A→B at 90 min, 10 μM / ×10⁻⁶ cm/s |
| --- | --- |
| CC[n+]1c(CNC(=O)c2nc(Cl)c(N)nc2N)n(C[C@@H]2CCCO2)c2cccc(OCC(=O)N(C)Cc3nc(C)ccc3[O-])c21 | 0.3 |
| CC[n+]1c(CNC(=O)c2nc(Cl)c(N)nc2N)n(C[C@@H]2CCCO2)c2cccc(OCC(=O)NC3CCNCC3)c21.O=C(O)C(F)(F)F.O=C([O-])C(F)(F)F | 0.3 |
| CCn1c(CNC(=O)c2nc(Cl)c(N)nc2N)[n+](CC)c2c(C(=O)NCCN(C)C)cccc21.[Cl-] | 0.04 |

Q) Given `CCn1c(CNC(=O)c2nc(Cl)c(N)nc2N)[n+](CC)c2c(C(=O)NCCCN)cccc21.Cl.[Cl-]` , state its recorded Papp A→B at 90 min, 10 μM.
A) 0.1

Q) Please give the result for `CCn1c(CNC(=O)c2nc(Cl)c(N)nc2N)[n+](CC)c2c(C(=O)NC3CCNCC3)cccc21.[Cl-]` too.
A) 0.08

Q) Please give the result for `CC[n+]1c(CNC(=O)c2nc(Br)c(N)nc2N)n(C[C@@H]2CCCO2)c2cccc(OCC(=O)N3C[C@H](O)[C@@H](O)C3)c21.O=C([O-])C(F)(F)F` too.
A) 0.2

Q) Please give the result for `CCn1c(CNC(=O)c2nc(Cl)c(N)nc2N)[n+](CC)c2c(C(=O)N3CCNCC3)cccc21.[Cl-]` too.
A) 0.2

* * *

target: ENaC (Epithelial Sodium Channel) in mouse kidney M-1 cells (Mus musculus, UniProt Q61180+Q9WU38+Q9WU39); construct: Mouse kidney M-1 cells were cultivated in DMEM containing 5% FCS and 5 μM dexamethasone; endogenous in cells; experiment: Ussing Chamber assay (short circuit current, amiloride sensitive I_SC); conditions: apical administration, 37° C.
API: label(entry) gives 1.0 if the entry's IC50 is strictly smaller than 3 nM; on equality or larger values it gives 0.0.

| molecule smiles | qualitative label |
| --- | --- |
| CCn1c(CNC(=O)c2nc(Cl)c(N)nc2N)[n+](CC)c2c(C(=O)NC3CCNCC3)cccc21.[Cl-] | 0.0 |
| CCn1c(CNC(=O)c2nc(Cl)c(N)nc2N)[n+](CC)c2c(C(=O)NCCN(C)C)cccc21.[Cl-] | 0.0 |
| CC[n+]1c(CNC(=O)c2nc(Cl)c(N)nc2N)n(CCOCCO)c2cccc(OC(CO)CO)c21 | 0.0 |
| CC[n+]1c(CNC(=O)c2nc(Cl)c(N)nc2N)n(CCOCCO)c2cccc(OCC(=O)NC3CCNCC3)c21 | 0.0 |
| CC[n+]1c(CNC(=O)c2nc(Br)c(N)nc2N)n(C[C@@H]2CCCO2)c2cccc(OCC(=O)N3C[C@H](O)[C@@H](O)C3)c21.O=C([O-])C(F)(F)F | 0.0 |
| CC[n+]1c(CNC(=O)c2nc(Cl)c(N)nc2N)n(C[C@@H]2CCCO2)c2cccc(OCC(=O)N(C)Cc3nc(C)ccc3[O-])c21 | 0.0 |
| CCn1c(CNC(=O)c2nc(Cl)c(N)nc2N)[n+](CC)c2c(C(=O)NCCCNC(=O)OC(C)(C)C)cccc21 | 0.0 |
| CCn1c(CNC(=O)c2nc(Cl)c(N)nc2N)[n+](CC)c2c(C(=O)NCCCN)cccc21.Cl.[Cl-] | 0.0 |
| CC[n+]1c(CNC(=O)c2nc(Cl)c(C)nc2N)n(C[C@@H]2CCCO2)c2cccc(OCC(=O)NC3CCN(C(=O)OC(C)(C)C)CC3)c21 | 1.0 |
| CC[n+]1c(CNC(=O)c2nc(Cl)c(N)nc2N)n(C[C@@H]2CCCO2)c2cccc(OCC(=O)NC3CCNCC3)c21.O=C(O)C(F)(F)F.O=C([O-])C(F)(F)F | 1.0 |

Okay, now this molecule:
Q) Hello, is IC50 of the following molecule strictly smaller than 3 nM? `CCn1c(CNC(=O)c2nc(Cl)c(N)nc2N)[n+](CC)c2c(C(=O)N(C)Cc3nc(C)ccc3O)cccc21`
A) 1.0
